- test-summary: collision cross section of modified peptide (TIMS, N2, iRT-aligned); higher = larger / more extended gas-phase ion
- condition-summary: charge state: 2; modification: GlyGly (K)
readout: collision cross section (Å²)
Express the result in Å² but write the number alone.

Study these solved cases before continuing.
1) ITASLCDLKSR [_ITASLCDLK(GlyGly (K))SR_]
398.64
2) SSGPGGQNVNKVNSK [_SSGPGGQNVNK(GlyGly (K))VNSK_]
407.13

Could you now consider this next sequence?
The recorded collision cross section for entry ASNAAVKLAESK [_ASNAAVK(GlyGly (K))LAESK_] equals 395.25

====

- test-summary: collision cross section of modified peptide (TIMS, N2, iRT-aligned); higher = larger / more extended gas-phase ion
- condition-summary: charge state: 3; modification: hydroxyisobutyryl
Listed next: entries and their corresponding collision cross section.
Express the result in Å² but write the number alone.

The recorded collision cross section for entry DAIHFYNKSLAEHR [_DAIHFYNK(hydroxyisobutyryl)SLAEHR_] equals 512.82

The recorded collision cross section for entry GTITVSAQELKDNR [_GTITVSAQELK(hydroxyisobutyryl)DNR_] equals 485.27

The recorded collision cross section for entry DDSFLGKLGGTLAR [_DDSFLGK(hydroxyisobutyryl)LGGTLAR_] equals 495.38

The recorded collision cross section for entry SDSGKPYYYNSQTK [_SDSGK(hydroxyisobutyryl)PYYYNSQTK_] equals 490.1

The recorded collision cross section for entry VTLEVGKVIQQGR [_VTLEVGK(hydroxyisobutyryl)VIQQGR_] equals 486.66

====

Listed next: entries and their corresponding collision cross section.
- test-summary: collision cross section of modified peptide (TIMS, N2, iRT-aligned); higher = larger / more extended gas-phase ion
- condition-summary: charge state: 2; modification: HexNAc (ST)
Express the result in Å² but write the number alone.

The recorded collision cross section for entry PAVTAAPK [_PAVT(HexNAc (ST))AAPK_] equals 333.39

The recorded collision cross section for entry TQSFSLQER [_T(HexNAc (ST))QSFSLQER_] equals 373.04

The recorded collision cross section for entry SLIGKVDGTSHVTGK [_SLIGKVDGT(HexNAc (ST))SHVTGK_] equals 438.41

The recorded collision cross section for entry VDGDTQTTVEK [_VDGDTQTT(HexNAc (ST))VEK_] equals 383.53

The recorded collision cross section for entry TSSEASVSSSVAK [_T(HexNAc (ST))SSEASVSSSVAK_] equals 394.41

The recorded collision cross section for entry LGNTISSLFGGGTTPDAK [_LGNTISSLFGGGT(HexNAc (ST))TPDAK_] equals 471.52

The recorded collision cross section for entry KITESVAETAQTIK [_KITESVAETAQT(HexNAc (ST))IK_] equals 451.91

====

- test-summary: collision cross section of modified peptide (TIMS, N2, iRT-aligned); higher = larger / more extended gas-phase ion
- condition-summary: charge state: 2; modification: Formyl
readout: collision cross section (Å²)
Express the result in Å² but write the number alone.

Study these solved cases before continuing.
1. ASAISIKLGSSK [_ASAISIK(Formyl)LGSSK_]
364.8
2. VGLQVVAVKAPGFGDNR [_VGLQVVAVK(Formyl)APGFGDNR_]
440.17
3. VGEFSGANKEK [_VGEFSGANK(Formyl)EK_]
358.59
4. TTGFYSGFSEVAEKR [_TTGFYSGFSEVAEK(Formyl)R_]
430.24
5. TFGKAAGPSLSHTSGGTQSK [_TFGK(Formyl)AAGPSLSHTSGGTQSK_]
488.52

The recorded collision cross section for entry AGPNASIISLKSDK [_AGPNASIISLK(Formyl)SDK_] equals 404.66

The recorded collision cross section for entry TPNLYIYSKK [_TPNLYIYSK(Formyl)K_] equals 377.67

The recorded collision cross section for entry SITHSTVGSKGEK [_SITHSTVGSK(Formyl)GEK_] equals 387.87

The recorded collision cross section for entry VDIDAPDVSIEGPDAKLK [_VDIDAPDVSIEGPDAK(Formyl)LK_] equals 461.12

The recorded collision cross section for entry DAEAAEATAEGALKAEK [_DAEAAEATAEGALK(Formyl)AEK_] equals 428.82

The recorded collision cross section for entry DTGEKLTVAENEAETK [_DTGEK(Formyl)LTVAENEAETK_] equals 439.79

====

- test-summary: collision cross section of modified peptide (TIMS, N2, iRT-aligned); higher = larger / more extended gas-phase ion
- condition-summary: charge state: 2; modification: Succinyl
// label = True if collision cross section is not less than 400 Å², otherwise False

1. IDLPAENSNSETIIITGKR [_IDLPAENSNSETIIITGK(Succinyl)R_]
True
2. VNIGQGSHPQKVK [_VNIGQGSHPQK(Succinyl)VK_]
True
3. LGVATVAKGVCGACK [_LGVATVAK(Succinyl)GVCGACK_]
True

Say whether ITASLCDLKSR [_ITASLCDLK(Succinyl)SR_] shows collision cross section of 400 Å² or more.
False

Say whether ASAISIKLGSSK [_ASAISIK(Succinyl)LGSSK_] shows collision cross section of 400 Å² or more.
False

Say whether IPQEKCILQTDVK [_IPQEK(Succinyl)CILQTDVK_] shows collision cross section of 400 Å² or more.
True

Say whether ITLSKHQNVQLPR [_ITLSK(Succinyl)HQNVQLPR_] shows collision cross section of 400 Å² or more.
True

Say whether ANEKTESSSAQQVAVSR [_ANEK(Succinyl)TESSSAQQVAVSR_] shows collision cross section of 400 Å² or more.
True

Say whether SDDESSQKDIK [_SDDESSQK(Succinyl)DIK_] shows collision cross section of 400 Å² or more.
False

====

- test-summary: collision cross section of modified peptide (TIMS, N2, iRT-aligned); higher = larger / more extended gas-phase ion
- condition-summary: charge state: 3; modification: GlyGly (K)
readout: collision cross section (Å²)
Express the result in Å² but write the number alone.

The recorded collision cross section for entry LGVATVAKGVCGACK [_LGVATVAK(GlyGly (K))GVCGACK_] equals 497.41

====

- test-summary: collision cross section of modified peptide (TIMS, N2, iRT-aligned); higher = larger / more extended gas-phase ion
- condition-summary: charge state: 2; modification: hydroxyisobutyryl
readout: collision cross section (Å²)
Express the result in Å² but write the number alone.

1) SKLLFSNTAAQK [_SK(hydroxyisobutyryl)LLFSNTAAQK_]
404.35
2) VGTASVLQPVKK [_VGTASVLQPVK(hydroxyisobutyryl)K_]
388.32
3) ITASLCDLKSR [_ITASLCDLK(hydroxyisobutyryl)SR_]
395.08
4) SSGPGGQNVNKVNSK [_SSGPGGQNVNK(hydroxyisobutyryl)VNSK_]
407.53

Could you now consider this next sequence?
The recorded collision cross section for entry LEQVEKELLR [_LEQVEK(hydroxyisobutyryl)ELLR_] equals 394.74

====

- test-summary: collision cross section of modified peptide (TIMS, N2, iRT-aligned); higher = larger / more extended gas-phase ion
- condition-summary: charge state: 3; modification: Formyl
readout: collision cross section (Å²)
Express the result in Å² but write the number alone.

1) SLGEPAAGEGSAKR [_SLGEPAAGEGSAK(Formyl)R_]
481.8

The recorded collision cross section for entry VNIGQGSHPQKVK [_VNIGQGSHPQK(Formyl)VK_] equals 472.74

The recorded collision cross section for entry DSSPTTNSKLSALQR [_DSSPTTNSK(Formyl)LSALQR_] equals 491.37

The recorded collision cross section for entry FDDTNPEKEEAK [_FDDTNPEK(Formyl)EEAK_] equals 435.1

The recorded collision cross section for entry LLIVSTTPYSEKDTK [_LLIVSTTPYSEK(Formyl)DTK_] equals 480.73

The recorded collision cross section for entry VLTANSNPSSPSAAKR [_VLTANSNPSSPSAAK(Formyl)R_] equals 501.92

The recorded collision cross section for entry ITLSKHQNVQLPR [_ITLSK(Formyl)HQNVQLPR_] equals 504.15

====

- test-summary: collision cross section of unmodified peptide (TIMS, N2, iRT-aligned); higher = larger / more extended gas-phase ion
- condition-summary: charge state: 2
readout: collision cross section (Å²)
Express the result in Å² but write the number alone.

Study these solved cases before continuing.
1) KYEEIDNAPEER
401.01
2) ALASIDSKLNQAK
410.25

Could you now consider this next sequence?
The recorded collision cross section for entry IPAASAAAMNLASAR equals 397.84

====

- test-summary: collision cross section of modified peptide (TIMS, N2, iRT-aligned); higher = larger / more extended gas-phase ion
- condition-summary: charge state: 2; modification: Butyryl
readout: collision cross section (Å²)
Express the result in Å² but write the number alone.

1) VPTTEKPTVTVNFR [_VPTTEK(Butyryl)PTVTVNFR_]
428.57

The recorded collision cross section for entry ITASLCDLKSR [_ITASLCDLK(Butyryl)SR_] equals 390.25

The recorded collision cross section for entry GEVGAGAGPGAQAGPSAKR [_GEVGAGAGPGAQAGPSAK(Butyryl)R_] equals 426.32

The recorded collision cross section for entry TQAYQDQKPGTSGLR [_TQAYQDQK(Butyryl)PGTSGLR_] equals 427.73

The recorded collision cross section for entry VGVEVPDVNIEGPEGKLK [_VGVEVPDVNIEGPEGK(Butyryl)LK_] equals 461.93

The recorded collision cross section for entry DHLSDKESK [_DHLSDK(Butyryl)ESK_] equals 355.58

The recorded collision cross section for entry SDDESSQKDIK [_SDDESSQK(Butyryl)DIK_] equals 378.95

The recorded collision cross section for entry SPDEAYAIAKK [_SPDEAYAIAK(Butyryl)K_] equals 376.59

The recorded collision cross section for entry VYIASSSGSTAIKK [_VYIASSSGSTAIK(Butyryl)K_] equals 422.89
